Test system: Epidermal growth factor receptor (Homo sapiens), P00533 [L858R,T790M]
Sequence (P00533 whole entry T790M/L858R, looked up): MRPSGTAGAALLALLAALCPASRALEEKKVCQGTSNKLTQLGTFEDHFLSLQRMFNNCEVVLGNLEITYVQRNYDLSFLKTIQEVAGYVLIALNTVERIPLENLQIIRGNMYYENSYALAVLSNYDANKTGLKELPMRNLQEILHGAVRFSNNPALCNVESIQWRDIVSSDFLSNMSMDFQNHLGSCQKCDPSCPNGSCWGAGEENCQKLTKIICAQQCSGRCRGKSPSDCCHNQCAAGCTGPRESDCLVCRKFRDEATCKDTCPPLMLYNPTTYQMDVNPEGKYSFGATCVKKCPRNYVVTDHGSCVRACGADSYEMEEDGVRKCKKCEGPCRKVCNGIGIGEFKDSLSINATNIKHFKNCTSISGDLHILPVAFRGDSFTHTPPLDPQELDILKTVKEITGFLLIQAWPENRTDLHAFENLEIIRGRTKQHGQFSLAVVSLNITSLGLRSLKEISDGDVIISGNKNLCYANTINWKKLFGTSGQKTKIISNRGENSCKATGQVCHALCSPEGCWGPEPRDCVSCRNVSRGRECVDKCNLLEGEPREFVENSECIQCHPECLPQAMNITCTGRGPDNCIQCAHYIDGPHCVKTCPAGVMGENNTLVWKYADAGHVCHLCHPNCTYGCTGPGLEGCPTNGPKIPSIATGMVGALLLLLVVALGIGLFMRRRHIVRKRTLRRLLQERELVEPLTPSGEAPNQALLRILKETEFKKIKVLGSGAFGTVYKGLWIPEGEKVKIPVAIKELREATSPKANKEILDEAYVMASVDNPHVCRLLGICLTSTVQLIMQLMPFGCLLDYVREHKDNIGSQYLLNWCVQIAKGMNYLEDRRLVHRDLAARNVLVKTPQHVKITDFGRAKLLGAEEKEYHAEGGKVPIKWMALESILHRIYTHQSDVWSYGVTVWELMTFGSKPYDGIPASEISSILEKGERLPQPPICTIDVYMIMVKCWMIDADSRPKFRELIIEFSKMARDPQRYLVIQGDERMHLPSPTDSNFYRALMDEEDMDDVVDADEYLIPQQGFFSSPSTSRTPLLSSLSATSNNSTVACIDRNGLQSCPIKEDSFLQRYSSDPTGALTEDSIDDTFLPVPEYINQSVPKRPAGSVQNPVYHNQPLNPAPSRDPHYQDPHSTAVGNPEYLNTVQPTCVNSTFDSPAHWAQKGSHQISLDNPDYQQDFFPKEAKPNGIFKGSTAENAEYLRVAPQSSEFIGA
Conditions: NCI-H1975, at 10 µM
Active and inactive are the calls of the source. The rule behind the calls is not given here.
Assign a class; possible classes are active, inactive

Use these answered entries as a reference point.
• COc1ccc(/C=C/C(=O)/C=C(O)/C=C/c2ccc(OC)c(OC)c2)cc1OC = active
• COc1cc(/C=C/C(=O)/C=C(O)/C=C/c2ccc(OCC(=O)Nc3ccccc3)c(OC)c2)ccc1OCC(=O)Nc1ccccc1 = inactive
• CCOC(=O)CC/C(C(=O)/C=C/c1ccc(O)c(O)c1)=C(O)\C=C\c1ccc(O)c(O)c1 = inactive

-- ask Which result was noted for this compound in the test: CCOC(=O)CC/C(C(=O)/C=C/c1ccc(OCC(=O)OC)c(OC)c1)=C(O)\C=C\c1ccc(OCC(=O)OC)c(OC)c1
-- reply inactive

-- ask What about COc1cc(/C=C/C(O)=C/C(=O)/C=C/c2ccc(O)cc2)ccc1O ?
-- reply inactive

-- ask What about COc1cc(/C=C/C(O)=C/C(=O)/C=C/c2ccc(OC)c(OC)c2)ccc1O ?
-- reply active

====

Target: Epidermal growth factor receptor (Homo sapiens)
Conditions: CL1-5, at 10 µM
Description: Inhibition of wild type EGFR Tyr1068 phosphorylation in gefinitib-insensitive and 24 hrs serum starved human CL1-5 cells at 10 uM pre-incubated for 1 hr before EGF stimulation for 30 mins by Western blot method
Activity calls are given as the source filed them. The rule behind the calls is not given here.
Assign a class; possible classes are YES for active, NO for inactive

Use these answered entries as a reference point.
* CCOC(=O)CC/C(C(=O)/C=C/c1ccc(O)c(O)c1)=C(O)\C=C\c1ccc(O)c(O)c1 | YES
* COc1cc(/C=C/C(=O)/C(CCC(=O)O)=C(O)/C=C/c2ccc(O)c(O)c2)ccc1O | NO
* COc1cc(/C=C/C(=O)/C=C(O)/C=C/c2ccc(OCCCC(=O)O)c(OC)c2)ccc1OCCCC(=O)O | NO
* COc1ccc(/C=C/C(=O)/C=C(O)/C=C/c2ccc(OC)c(OC)c2)cc1OC | YES
* CCOC(=O)/C=C/C(C(=O)/C=C/c1ccc(O)c(O)c1)=C(O)\C=C\c1ccc(O)c(OC)c1 | NO
* CCOC(=O)CC/C(C(=O)/C=C/c1ccc(O)c(OC)c1)=C(O)\C=C\c1ccc(O)c(OC)c1 | YES
* COc1cc(/C=C/C(=O)/C(C(C)=O)=C(O)/C=C/c2ccc(O)c(OC)c2)ccc1O | YES
* CCOC(=O)CC/C(C(=O)/C=C/c1ccc(O)c(OC)c1)=C(O)\C=C\c1ccc(O)c(O)c1 | YES
* CCOC(=O)CC/C(C(=O)/C=C/c1cc(OC)c(O)c(OC)c1)=C(O)\C=C\c1cc(OC)c(O)c(OC)c1 | NO
* COc1cc(OC)c(OC)cc1/C=C/C(=O)/C=C(O)/C=C/c1cc(OC)c(OC)cc1OC | YES

-- ask Which result was noted for this molecule in the test: CCOC(=O)CCCOc1ccc(/C=C/C(=O)/C=C(O)/C=C/c2ccc(OCCCC(=O)OCC)c(OC)c2)cc1OC
-- reply NO

-- ask What about CCOC(=O)CC/C(C(=O)/C=C/c1cc(O)c(OC)c(OC)c1)=C(O)\C=C\c1cc(O)c(OC)c(OC)c1 ?
-- reply YES

-- ask What about COc1cc(F)c(/C=C/C(=O)/C=C(O)/C=C/c2cc(OC)c(OC)cc2F)cc1OC ?
-- reply YES

-- ask What about O=C(/C=C(O)/C=C/c1ccc(O)c(O)c1)/C=C/c1ccc(O)c(O)c1 ?
-- reply YES

-- ask What about COc1cc(/C=C/C(O)=C/C(=O)/C=C/c2ccc(O)c(O)c2)ccc1O ?
-- reply NO

-- ask What about COc1cc(/C=C/C(=O)/C=C(O)/C=C/c2cc(O)c(OC)c(OC)c2)cc(O)c1OC ?
-- reply NO

-- ask What about COc1cc(/C=C/C(=O)/C=C(O)/C=C/c2ccc(OCC(=O)O)c(OC)c2)ccc1OCC(=O)O ?
-- reply NO

-- ask What about COc1cc(/C=C/C(O)=C/C(=O)/C=C/c2ccc(O)cc2)ccc1O ?
-- reply NO

-- ask What about COc1cc(/C=C/C(=O)/C(CCC(=O)O)=C(O)/C=C/c2ccc(O)c(OC)c2)ccc1O ?
-- reply NO
